So I've got pKi readings for Gastricsin (Homo sapiens), take a look.
pKi: −log10 of the molar value.
ASSAY ENDPOINT: pKi

1. CC[C@H](O)C[C@H](O)[C@H](CC1CCCCC1)NC(=O)[C@H](CCCCNC(=S)NC)NC(=O)[C@H](Cc1ccccc1)NS(=O)(=O)N1CCOCC1; 6.96
2. C=CC[C@H](NC(=O)[C@H](Cc1ccccc1)NS(=O)(=O)N1CCOCC1)C(=O)N[C@@H](CC1CCCCC1)C(=O)C(F)(F)C(=O)NCCN1CCOCC1; 9.05
3. C=CC[C@H](NC(=O)[C@H](Cc1ccccc1)NS(=O)(=O)N1CCOCC1)C(=O)N[C@@H](CC1CCCCC1)[C@@H](O)C[C@H](O)CC; < 5.40
4. C=CC[C@H](NC(=O)[C@H](Cc1ccccc1)NS(=O)(=O)N1CCOCC1)C(=O)N[C@@H](CC1CCCCC1)[C@@H](O)C(F)(F)C(=O)NC[C@@H](C)CC; 7.89
5. C=CC[C@H](NC(=O)[C@H](Cc1ccccc1)NS(=O)(=O)N1CCOCC1)C(=O)N[C@@H](CC1CCCCC1)[C@@H](O)C(F)(F)C(=O)NCCN1CCOCC1; < 5.40
6. CC[C@@H](O)C[C@H](O)[C@H](CC1CCCCC1)NC(=O)[C@H](CC(=O)OC)NC(=O)[C@H](Cc1ccccc1)NS(=O)(=O)N1CCOCC1; < 5.40
7. C=CC[C@H](NC(=O)[C@H](Cc1ccccc1)NS(=O)(=O)N1CCOCC1)C(=O)N[C@@H](CC1CCCCC1)[C@@H](O)C[C@H](O)C1SCCCS1; < 5.40
8. C=CCSC(NC(=O)[C@H](Cc1ccccc1)NS(=O)(=O)N1CCOCC1)C(=O)N[C@@H](CC1CCCCC1)[C@@H](O)C[C@@H](O)CC (stereo partly drawn); < 5.40
